All figures here come from ChEMBL document CHEMBL1255476.

Tested on: Human immunodeficiency virus 1
Assay: Antiviral activity against HIV1 subtype B isolate 4 infected in HEK293 cells assessed as inhibition of virus replication after 72 hrs
Format: functional, organism-based
Details: Human immunodeficiency virus 1, HEK293, 72 h
The entries below are paired with their reported pEC50.
Keep in mind that pEC50 stands for -log10 of concentration in molar terms.

[
  {
    "Molecule": "C=C1[C@H](CO)[C@@H](O)C[C@@H]1n1cnc2c(=O)[nH]c(N)nc21.O",
    "pEC50": 4.87
  }
]

Query: Supply measured pEC50 of "Nc1ccn([C@@H]2CS[C@H](CO)O2)c(=O)n1" in your reply.
Response: 5.27

* * *

The entries below are paired with their reported EC50.
System: Human immunodeficiency virus 1
Assay: Antiviral activity against HIV1 subtype C isolate 7 infected in HEK293 cells assessed as inhibition of virus replication after 72 hrs
Type: functional, organism-based
Conditions: Human immunodeficiency virus 1, subtype C isolate 7, HEK293, 72 h

// worked examples, EC50 included
[
  {
    "Molecule": "Nc1ccn([C@@H]2CS[C@H](CO)O2)c(=O)n1",
    "Subject of test": "Human immunodeficiency virus 1",
    "EC50": "4.06 µM"
  },
  {
    "Molecule": "Cc1cn([C@@H]2C[C@@H](O)[C@H](CO)O2)c(=O)[nH]c1=O",
    "Subject of test": "Human immunodeficiency virus 1",
    "EC50": "> 600 µM"
  }
]

Query: Supply measured EC50 of "C=C1[C@H](CO)[C@@H](O)C[C@@H]1n1cnc2c(=O)[nH]c(N)nc21.O" in your reply.
Response: 9.95 µM

* * *

Test: Cmax in human at 600 mg
Format: ADME, organism-based
Set-up: dose 600 mg
Conditions: in vivo
Quantity name: Cmax (µM)
Give the value, in units of µM, as a plain number.

Query: Supply measured Cmax of "Cc1cn([C@@H]2C[C@@H](O)[C@H](CO)O2)c(=O)[nH]c1=O" in your reply.
Response: 13.2

* * *

Tested on: Human immunodeficiency virus 1
Assay: Antiviral activity against HIV1 subtype C isolate 6 infected in HEK293 cells assessed as inhibition of virus replication after 72 hrs
Assay type: functional, organism-based
Details: Human immunodeficiency virus 1, HEK293, 72 h
The entries below are paired with their reported EC50.
Give the value, in units of µM, as a plain number.

[
  {
    "Molecule": "C=C1[C@H](CO)[C@@H](O)C[C@@H]1n1cnc2c(=O)[nH]c(N)nc21.O",
    "Value reported": 9.51
  }
]

Query: Supply measured EC50 of "Nc1ccn([C@@H]2CS[C@H](CO)O2)c(=O)n1" in your reply.
Response: 3.9
